# Test system: C. difficile clinical isolates
# assay.notes: MIC against a panel of 20 C. difficile clinical isolates (broth microdilution)
# Assay type: cell-based, Clostridioides difficile
# experimental.parameters: Clostridioides difficile, C. difficile CD-29 (Ribotype-027); read-out: minimum inhibitory concentration (MIC)
Where a name gives a salt, the structure may show the parent alone.
Listed here: items and their measured MIC.

molecule | MIC
Cc1ccc2c(Cl)cc(Cl)c(O)c2n1 [Chlorquinaldol] | 0.06 µg/mL
Oc1c(Br)cc(Br)c2cccnc12 [Broxyquinoline] | 0.06 µg/mL
COC(=O)N/N=C/c1c[n+]([O-])c2ccccc2[n+]1[O-] [Carbadox] | 0.5 µg/mL
CCc1c(Cl)c(O)c(Cl)c(O)c1C(=O)O[C@H]1[C@H](O)[C@H](OC)[C@H](OC/C2=C\C=C\C[C@H](O)/C(C)=C/[C@H](CC)[C@@H](O[C@@H]3OC(C)(C)[C@@H](OC(=O)C(C)C)[C@H](O)[C@@H]3O)/C(C)=C/C(C)=C/C[C@@H]([C@@H](C)O)OC2=O)O[C@@H]1C [Fidaxomicin] | ≤ 0.0078 µg/mL
CCCCc1oc2ccc(NS(C)(=O)=O)cc2c1C(=O)c1ccc(OCCCN(CCCC)CCCC)cc1 [Dronedarone] | 2 µg/mL
N=C(N/N=C/c1ccc(Cl)cc1)N/N=C/c1ccc(Cl)cc1 [Robenidine hydrochloride] | 1 µg/mL

From: paper PMC11288027
